All figures here come from patent US5998654A.

Each item that follows carries a reported EC50.
Biological target: RARγ (Homo sapiens)
Sequence (P13631 1-454): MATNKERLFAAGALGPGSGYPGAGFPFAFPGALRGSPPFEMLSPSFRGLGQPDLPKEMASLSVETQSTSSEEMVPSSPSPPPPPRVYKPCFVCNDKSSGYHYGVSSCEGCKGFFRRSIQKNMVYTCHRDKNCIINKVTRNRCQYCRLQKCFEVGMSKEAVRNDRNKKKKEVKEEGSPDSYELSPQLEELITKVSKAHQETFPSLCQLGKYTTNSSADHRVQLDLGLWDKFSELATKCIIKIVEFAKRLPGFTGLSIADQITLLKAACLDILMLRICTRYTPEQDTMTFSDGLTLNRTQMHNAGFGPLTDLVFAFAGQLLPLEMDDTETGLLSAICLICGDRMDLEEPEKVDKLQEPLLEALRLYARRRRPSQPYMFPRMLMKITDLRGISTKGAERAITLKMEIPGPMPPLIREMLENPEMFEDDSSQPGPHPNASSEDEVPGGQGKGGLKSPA
Assay: co-transfection assay, agonist activity on RARγ
Settings: CV-1 cells; read-out: EC50 agonist potency, RARγ

// worked examples, EC50 included
- line.notation: "CCCCOc1c(C(C)(C)C)cc(/C(C)=C/C=C/C(C)=C/C(=O)O)cc1C(C)(C)C"
  result: "> 10 µM"
- line.notation: "C=C(c1ccccc1)c1cc(/C(C)=C/C=C/C(C)=C/C(=O)O)cc(C(C)(C)C)c1"
  result: "> 10 µM"
- line.notation: "CCCCCOc1c(C(C)(C)C)cc(/C(C)=C/C=C/C(C)=C/C(=O)O)cc1C(C)(C)C"
  result: "> 10 µM"

Here is the next item to consider.
**Q:** Endpoint output: EC50 of CCCOc1c(C(C)(C)C)cc(/C(C)=C/C=C/C(C)=C/C(=O)O)cc1C(C)(C)C . Value?
**A:** > 10 µM

---

Biological target: RARβ (Homo sapiens, UniProt P10826)
Sequence (P10826 1-448 isoform P10826-2): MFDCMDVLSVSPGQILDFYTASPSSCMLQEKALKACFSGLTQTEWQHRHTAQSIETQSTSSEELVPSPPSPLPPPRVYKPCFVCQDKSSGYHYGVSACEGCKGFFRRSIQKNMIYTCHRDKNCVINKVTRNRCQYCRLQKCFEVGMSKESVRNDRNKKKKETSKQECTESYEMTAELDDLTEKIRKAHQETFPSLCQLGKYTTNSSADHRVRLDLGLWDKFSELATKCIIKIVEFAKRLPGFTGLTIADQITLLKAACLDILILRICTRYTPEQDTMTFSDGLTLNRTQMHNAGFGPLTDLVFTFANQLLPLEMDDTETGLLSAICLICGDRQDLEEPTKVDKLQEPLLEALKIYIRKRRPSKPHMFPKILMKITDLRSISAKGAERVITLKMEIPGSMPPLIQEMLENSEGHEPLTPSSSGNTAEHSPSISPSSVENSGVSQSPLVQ
Test: co-transfection assay, agonist activity on RARβ
Settings: CV-1 cells; read-out: EC50 agonist potency, RARβ
assay.metric: EC50

- line.notation: "CCCCOc1c(C(C)(C)C)cc(/C(C)=C/C=C/C(C)=C/C(=O)O)cc1C(C)(C)C"
  result: "> 10 µM"

**Q:** Value wanted: EC50 (RARβ (Homo sapiens, UniProt P10826)) of entry C=C(c1ccccc1)c1cc(/C(C)=C/C=C/C(C)=C/C(=O)O)cc(C(C)(C)C)c1
**A:** > 10 µM

**Q:** Value wanted: EC50 (RARβ (Homo sapiens, UniProt P10826)) of entry CCCOc1c(C(C)(C)C)cc(/C(C)=C/C=C/C(C)=C/C(=O)O)cc1C(C)(C)C
**A:** > 10 µM

**Q:** Value wanted: EC50 (RARβ (Homo sapiens, UniProt P10826)) of entry CCCCCOc1c(C(C)(C)C)cc(/C(C)=C/C=C/C(C)=C/C(=O)O)cc1C(C)(C)C
**A:** > 10 µM

---

Each item that follows carries a reported efficacy of antagonist, % of maximal inhibition, RARα (in parentheses after IC50).
biological target: RARα (Homo sapiens, UniProt P10276); experiment: co-transfection assay, antagonist activity on RARα; assay type: cell-based; set-up: expressed in transfected cells; host or cells: CV-1 cells (African green monkey kidney); conditions: CV-1 cells, in presence of known RAR agonist TTNPB
Sequence (P10276 whole entry): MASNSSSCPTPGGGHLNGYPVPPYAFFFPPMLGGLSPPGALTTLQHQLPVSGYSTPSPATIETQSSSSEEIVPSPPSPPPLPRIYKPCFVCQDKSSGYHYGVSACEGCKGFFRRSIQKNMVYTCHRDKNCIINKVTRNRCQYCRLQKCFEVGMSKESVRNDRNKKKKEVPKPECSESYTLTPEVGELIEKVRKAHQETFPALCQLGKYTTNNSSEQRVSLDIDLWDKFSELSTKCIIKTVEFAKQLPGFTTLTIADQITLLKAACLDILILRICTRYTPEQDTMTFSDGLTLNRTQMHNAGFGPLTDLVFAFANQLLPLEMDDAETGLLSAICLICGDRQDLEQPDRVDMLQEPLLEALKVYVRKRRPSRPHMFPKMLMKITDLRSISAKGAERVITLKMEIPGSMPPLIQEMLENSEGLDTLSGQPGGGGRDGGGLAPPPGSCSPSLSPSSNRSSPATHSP
Quick reminder: number only, in %, skip the unit.

- line.notation: "CCCOc1c(C(C)(C)C)cc(/C(C)=C/C=C/C(C)=C/C(=O)O)cc1C(C)(C)C"
  result.number: 90
- line.notation: "CCCCOc1c(C(C)(C)C)cc(/C(C)=C/C=C/C(C)=C/C(=O)O)cc1C(C)(C)C"
  result.number: 90

**Q:** Endpoint output: efficacy of antagonist, % of maximal inhibition, RARα (in parentheses after IC50) of C=C(c1ccccc1)c1cc(/C(C)=C/C=C/C(C)=C/C(=O)O)cc(C(C)(C)C)c1 . Value?
**A:** 98

**Q:** Endpoint output: efficacy of antagonist, % of maximal inhibition, RARα (in parentheses after IC50) of CCCCCOc1c(C(C)(C)C)cc(/C(C)=C/C=C/C(C)=C/C(=O)O)cc1C(C)(C)C . Value?
**A:** 91

---

molecular target: RARγ (Homo sapiens, UniProt P13631); assay: co-transfection assay, antagonist activity on RARγ; assay type: cell-based; design: expressed in transfected cells; host or cells: CV-1 cells (African green monkey kidney); conditions: CV-1 cells, in presence of known RAR agonist TTNPB
assay.metric: efficacy of antagonist, % of maximal inhibition, RARγ (in parentheses after IC50) (%)
Quick reminder: number only, in %, skip the unit.

**Q:** Value wanted: efficacy of antagonist, % of maximal inhibition, RARγ (in parentheses after IC50) (RARγ (Homo sapiens, UniProt P13631)) of entry CCCOc1c(C(C)(C)C)cc(/C(C)=C/C=C/C(C)=C/C(=O)O)cc1C(C)(C)C [Compound 8]
**A:** 85

**Q:** Value wanted: efficacy of antagonist, % of maximal inhibition, RARγ (in parentheses after IC50) (RARγ (Homo sapiens, UniProt P13631)) of entry CCCCCOc1c(C(C)(C)C)cc(/C(C)=C/C=C/C(C)=C/C(=O)O)cc1C(C)(C)C [Compound 9]
**A:** 80

**Q:** Value wanted: efficacy of antagonist, % of maximal inhibition, RARγ (in parentheses after IC50) (RARγ (Homo sapiens, UniProt P13631)) of entry CCCCOc1c(C(C)(C)C)cc(/C(C)=C/C=C/C(C)=C/C(=O)O)cc1C(C)(C)C [Compound 7]
**A:** 91

**Q:** Value wanted: efficacy of antagonist, % of maximal inhibition, RARγ (in parentheses after IC50) (RARγ (Homo sapiens, UniProt P13631)) of entry C=C(c1ccccc1)c1cc(/C(C)=C/C=C/C(C)=C/C(=O)O)cc(C(C)(C)C)c1 [Compound 17]
**A:** 85

---

Each item that follows carries a reported pIC50.
Target: UniProt:P13631
Sequence (P13631 1-454): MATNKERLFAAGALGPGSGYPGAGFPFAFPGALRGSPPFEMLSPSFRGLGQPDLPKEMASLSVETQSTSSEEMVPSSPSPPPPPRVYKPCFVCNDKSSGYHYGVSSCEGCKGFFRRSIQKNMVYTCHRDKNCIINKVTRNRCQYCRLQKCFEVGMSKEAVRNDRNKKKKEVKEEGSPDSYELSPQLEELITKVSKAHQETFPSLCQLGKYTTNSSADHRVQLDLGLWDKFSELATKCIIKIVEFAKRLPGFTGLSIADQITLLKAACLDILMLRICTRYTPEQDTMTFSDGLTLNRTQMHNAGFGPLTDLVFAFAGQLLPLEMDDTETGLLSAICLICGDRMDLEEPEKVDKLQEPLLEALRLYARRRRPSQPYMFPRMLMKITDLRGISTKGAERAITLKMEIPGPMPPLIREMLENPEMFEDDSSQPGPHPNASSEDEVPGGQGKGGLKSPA
Test: co-transfection assay, antagonist activity on RARγ
Conditions: CV-1 cells, in presence of known RAR agonist TTNPB; read-out: IC50 antagonist potency, RARγ
pIC50 (log units): -log10 of the concentration in mol/L.

// worked examples, pIC50 included
- line.notation: "CCCCCOc1c(C(C)(C)C)cc(/C(C)=C/C=C/C(C)=C/C(=O)O)cc1C(C)(C)C"
  target.or.test.system: "UniProt:P13631"
  pIC50: 8.30
- line.notation: "CCCCOc1c(C(C)(C)C)cc(/C(C)=C/C=C/C(C)=C/C(=O)O)cc1C(C)(C)C"
  target.or.test.system: "UniProt:P13631"
  pIC50: 8.70
- line.notation: "C=C(c1ccccc1)c1cc(/C(C)=C/C=C/C(C)=C/C(=O)O)cc(C(C)(C)C)c1"
  target.or.test.system: "UniProt:P13631"
  pIC50: 8.70

Here is the next item to consider.
**Q:** Endpoint output: pIC50 of CCCOc1c(C(C)(C)C)cc(/C(C)=C/C=C/C(C)=C/C(=O)O)cc1C(C)(C)C . Value?
**A:** 8.52
